MEASUREMENT NOTES: total protein half-life in vivo (active degradation + dilution); higher = more stable protein
EXPERIMENTAL SETUP: E. coli NCM3722 delta-clpP; growth: N-lim chemostat; doubling time 6 h
OBSERVATION TYPE: total protein half-life in vivo

Measured total protein half-life in vivo, MMKRNILAVIVPALLVAGTANAAEIYNKDGNKVDLYGKAVGLHYFSKGNGENSYGGNGDMTYARLGFKGETQINSDLTGYGQWEYNFQGNNSEGADAQTGNKTRLAFAGLKYADVGSFDYGRNYGVVYDALGYTDMLPEFGGDTAYSDDFFVGRVGGVATYRNSNFFGLVDGLNFAVQYLGKNERDTARRSNGDGVGGSISYEYEGFGIVGAYGAADRTNLQEAQPLGNGKKAEQWATGLKYDANNIYLAANYGETRNATPITNKFTNTSGFANKTQDVLLVAQYQFDFGLRPSIAYTKSKAKDVEGIGDVDLVNYFEVGATYYFNKNMSTYVDYIINQIDSDNKLGVGSDDTVAVGIVYQF : 6.23 h
